System: Plasmodium falciparum
ASSAY METHOD TEXT: Antiparasitic activity against Plasmodium falciparum D6
Format: functional, organism-based
PROPERTY NAME: EC50

Before answering, review these 5 worked examples.
                                smiles_repr      result
0  COc1ccc(CN(CCCCN)Cc2ccccc2)cc1.O=C(O)C(F)(F)F  Not Active
1  NCCCCN(Cc1ccc(Br)o1)Cc1ccc(Br)o1.O=C(O)C(F)(F)F  Not Active
2  NCCCN(Cc1ccccc1)Cc1ccc(Cc2ccc(Br)o2)cc1.O=C(O)C(F)(F)F  Not Active
3  Cc1ccc(COc2ccc(CN(CCCN)Cc3ccc(OCc4ccc(C)cc4)cc3)cc2)cc1     1410 nM
4  NCCCN(Cc1ccc(Br)o1)Cc1ccc(Br)o1.O=C(O)C(F)(F)F  Not Active

Provide each entry's EC50 from the list below.
1. NCCCCN(Cc1ccc(O)cc1)Cc1ccc(O)cc1.O=C(O)C(F)(F)F
2. COc1cccc(CN(CCCCN)Cc2cccc(OC)c2)c1.O=C(O)C(F)(F)F
3. COc1cc(CN(CCCN)Cc2cc(OC)cc(OC)c2)cc(OC)c1.O=C(O)C(F)(F)F
4. COc1ccc(CN(CCCN)Cc2ccc(OC)cc2)cc1.O=C(O)C(F)(F)F
5. NCCCN(Cc1ccccc1)Cc1ccc(C(=O)O)cc1.O=C(O)C(F)(F)F
6. COc1ccc(CN(CCCN)Cc2ccccc2)cc1.O=C(O)C(F)(F)F
7. COc1ccc(CN(CCCCN)Cc2ccccc2)cc1OC.O=C(O)C(F)(F)F

1. Not Active
2. Not Active
3. Not Active
4. Not Active
5. Not Active
6. Not Active
7. Not Active

----------
Tested on: Plasmodium falciparum
ASSAY METHOD TEXT: Antiparasitic activity against chloroquine-resistant Plasmodium falciparum W2
Type: functional, organism-based
ASSAY CONDITIONS: Plasmodium falciparum
Kindly apply the following: label 1 if EC50 is less than 4 µM, label 0 in every other case.

Examples with answers:
>>> print(df.to_string())
                                smiles_repr  label_value
0  NCCCCN(Cc1ccc(OCCCc2ccccc2)cc1)Cc1ccc(OCCCc2ccccc2)cc1      label 1
1  CC(C)c1ccc(CN(CCCCN)Cc2ccc(C(C)C)cc2)cc1.O=C(O)C(F)(F)F      label 0
2  NCCCN(Cc1ccc(OCc2ccccc2)c(OCc2ccccc2)c1)Cc1ccc(OCc2ccccc2)c(OCc2ccccc2)c1      label 1
3  NCCCCN(Cc1ccc(OCc2ccccc2)cc1)Cc1ccc(OCc2ccccc2)cc1      label 0
4  COc1cccc(CN(CCCCN)Cc2cccc(OC)c2)c1.O=C(O)C(F)(F)F      label 0

Answer whether the molecule `CCCCOc1ccc(CN(CCCCN)Cc2ccc(OCCCC)cc2)cc1` has EC50 strictly less than 4 µM label 0

Answer whether the molecule `Cc1ccc(COc2ccc(CN(CCCN)Cc3ccc(OCc4ccc(C)cc4)cc3)cc2)cc1` has EC50 strictly less than 4 µM label 1

Answer whether the molecule `NCCCN(Cc1ccc(OCCCc2ccccc2)cc1)Cc1ccc(OCCCc2ccccc2)cc1` has EC50 strictly less than 4 µM label 0

Answer whether the molecule `NCCCN(Cc1ccc(OCc2ccc(Br)cc2)cc1)Cc1ccc(OCc2ccc(Br)cc2)cc1` has EC50 strictly less than 4 µM label 1

----------
Test system: Plasmodium falciparum
ASSAY METHOD TEXT: Antiparasitic activity against Plasmodium falciparum D6
Format: functional, organism-based
PROPERTY NAME: EC50

                                smiles_repr  property_name      result
0  COc1cccc(CN(CCCN)Cc2cccc(OC)c2)c1.O=C(O)C(F)(F)F           EC50  Not Active
1  NCCCN(Cc1ccccc1)Cc1ccc(Cl)cc1.O=C(O)C(F)(F)F           EC50  Not Active
2  NCCCN(Cc1ccccc1)Cc1ccccc1.O=C(O)C(F)(F)F           EC50  Not Active

----------
System: Plasmodium falciparum
ASSAY METHOD TEXT: Antiparasitic activity against chloroquine-resistant Plasmodium falciparum W2
Format: functional, organism-based
ASSAY CONDITIONS: Plasmodium falciparum
PROPERTY NAME: pEC50
Give bare numbers, as −log10 of the molar value.

Before answering, review these 3 worked examples.
In [3]: df
Out[3]:
                                   compound  property_name  result_number
0  CCN(CC)CCCC(C)Nc1ccnc2cc(Cl)ccc12 (centres undefined)          pEC50           6.51
1  NCCCCN(Cc1ccc(OCc2ccccc2)c(OCc2ccccc2)c1)Cc1ccc(OCc2ccccc2)c(OCc2ccccc2)c1          pEC50           5.65
2  CC1=C2[C@H]3OC(=O)[C@@H](C)[C@@H]3[C@@H](O)C[C@@]2(C)C=CC1=O          pEC50           7.70

Now, please, on to the next compound.
// lookup pEC50 | system=Plasmodium falciparum | key= `COc1ccc(CN(CCCCN)Cc2ccccc2)cc1.O=C(O)C(F)(F)F` 5.65

----------
Tested on: Plasmodium falciparum
ASSAY METHOD TEXT: Antiparasitic activity against Plasmodium falciparum D6
Format: functional, organism-based
ASSAY CONDITIONS: Plasmodium falciparum
Consider the following compounds; for each one, report its EC50.
Give bare numbers, in nM.

Before answering, review these 4 worked examples.
                                smiles_repr          target_system  result_number
0  NCCCN(Cc1ccc(OCc2c(F)c(F)c(F)c(F)c2F)cc1)Cc1ccc(OCc2c(F)c(F)c(F)c(F)c2F)cc1  Plasmodium falciparum           2240
1  COc1ccc(CN(CCCCN)Cc2ccc(OC)cc2OC)c(OC)c1.O=C(O)C(F)(F)F  Plasmodium falciparum           7760
2          CC(C)c1ccc(CN(CCCN)Cc2ccccc2)cc1  Plasmodium falciparum           7310
3  COc1cc(CN(CCCCN)Cc2ccc(OCc3ccccc3)c(OC)c2)ccc1OCc1ccccc1  Plasmodium falciparum           1070

Given the entry `Cc1ccc(COc2ccc(CN(CCCN)Cc3ccc(OCc4ccc(C)cc4)cc3)cc2)cc1` , report its measured EC50. 1420

----------
Tested on: Plasmodium falciparum
ASSAY METHOD TEXT: Antiparasitic activity against Plasmodium falciparum D6
Type: functional, organism-based
PROPERTY NAME: EC50 (nM)
Answers are plain numbers, in nM.

>>> df
                                smiles_repr  property_name  result_number
0  NCCCCN(Cc1ccc(OCCCc2ccccc2)cc1)Cc1ccc(OCCCc2ccccc2)cc1           EC50           1040
1  NCCCN(Cc1ccc(OCc2ccc(Cl)c(Cl)c2)cc1)Cc1ccc(OCc2ccc(Cl)c(Cl)c2)cc1           EC50           1540
2  CC(C)(C)c1ccc(COc2ccc(CN(CCCN)Cc3ccc(OCc4ccc(C(C)(C)C)cc4)cc3)cc2)cc1           EC50           2020

Now, please, on to the next compound.
Given the entry `NCCCCN(Cc1ccc(OCCc2ccccc2)cc1)Cc1ccc(OCCc2ccccc2)cc1.O=C(O)C(F)(F)F` , report its measured EC50. 8680
